Reported Metric: melting point

cpd_smiles=COCCOC(=O)N[C@@H](CC(C)C)C(=O)N[C@@H](CCc1ccccc1)C(=O)C(=O)NC1CC1 reported_metric="melting point" observed_value="109.7 to 111.1 °C"
cpd_smiles=CC(C)C[C@H](NC(=O)OC1CCOCC1)C(=O)N[C@@H](Cc1ccccc1)C(=O)C(=O)NC1CC1 reported_metric="melting point" observed_value="137 to 138.2 °C"
cpd_smiles=COCCOCCOC(=O)N[C@@H](CC(C)C)C(=O)N[C@@H](CC(C)C)C(=O)C(=O)NCCOc1ccccc1 reported_metric="melting point" observed_value="53.3 to 54.1 °C"
cpd_smiles=COCCOCCOCCOCCOC(=O)N[C@@H](CC(C)C)C(=O)N[C@@H](Cc1ccccc1)C(=O)C(=O)NC1CC1 reported_metric="melting point" observed_value="97.5 to 98.5 °C"
cpd_smiles=CCNC(=O)C(=O)[C@H](Cc1ccccc1)NC(=O)[C@H](CC(C)C)NC(=O)OC1CCOCC1 reported_metric="melting point" observed_value="140 to 141.8 °C"

# get_value(readout='melting point', item= "COCCNC(=O)C(=O)[C@H](Cc1ccccc1)NC(=O)[C@H](CC(C)C)NC(=O)OCCOC" ) 127 to 127.9 °C

###

molecules and their reported melting point

cpd_smiles=CC(C)C[C@H](NC(=O)O[C@H]1CCOC1)C(=O)N[C@@H](Cc1ccccc1)C(=O)C(=O)NC1CC1 reported_metric="melting point" observed_value="169.2 to 170.5 °C"

# get_value(readout='melting point', item= "CC(C)C[C@H](NC(=O)O[C@H]1CCOC1)C(=O)N[C@@H](CCc1ccccc1)C(=O)C(=O)NC1CC1" ) 115.8 to 116.2 °C

# get_value(readout='melting point', item= "COCCOC(=O)N[C@@H](CC(C)C)C(=O)N[C@@H](Cc1ccccc1)C(=O)C(=O)NCC(F)(F)F" ) 152.5 to 153.9 °C

# get_value(readout='melting point', item= "COCCOC(=O)N[C@@H](CC(C)C)C(=O)N[C@@H](CC(C)C)C(=O)C(=O)NCCOc1ccccc1" ) 99.7 to 100.5 °C

# get_value(readout='melting point', item= "COCCOC(=O)N[C@@H](CC(C)C)C(=O)N[C@@H](Cc1ccccc1)C(=O)C(=O)NC1CCC1" ) 114.2 to 115.3 °C

###

Tested System: μ-calpain (derived from human red blood cells) (Homo sapiens, UniProt P07384)
Construct: derived from human red blood cells; purchased Cosmo Bio Co., Ltd; host or cells: human red blood cells (tissue-purified)
Sequence (P07384 whole entry): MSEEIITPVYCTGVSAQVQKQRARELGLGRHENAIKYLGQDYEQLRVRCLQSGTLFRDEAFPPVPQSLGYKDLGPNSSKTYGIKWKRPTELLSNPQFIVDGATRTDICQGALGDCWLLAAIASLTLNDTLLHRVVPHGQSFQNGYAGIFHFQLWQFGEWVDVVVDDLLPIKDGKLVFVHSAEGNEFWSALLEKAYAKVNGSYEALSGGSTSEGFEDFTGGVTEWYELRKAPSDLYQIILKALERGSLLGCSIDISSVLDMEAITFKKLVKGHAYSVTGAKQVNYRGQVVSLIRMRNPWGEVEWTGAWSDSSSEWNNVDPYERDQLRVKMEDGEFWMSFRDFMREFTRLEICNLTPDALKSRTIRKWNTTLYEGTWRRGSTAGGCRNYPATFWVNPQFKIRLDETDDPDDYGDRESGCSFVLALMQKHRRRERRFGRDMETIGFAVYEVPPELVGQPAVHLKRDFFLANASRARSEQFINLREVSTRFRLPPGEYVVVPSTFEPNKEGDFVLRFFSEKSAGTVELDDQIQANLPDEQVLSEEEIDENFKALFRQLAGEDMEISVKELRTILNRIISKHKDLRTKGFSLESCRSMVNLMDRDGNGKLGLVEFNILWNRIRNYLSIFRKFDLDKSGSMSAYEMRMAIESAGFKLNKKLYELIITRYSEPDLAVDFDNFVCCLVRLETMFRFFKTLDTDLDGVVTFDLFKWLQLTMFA
Sequence (P04632 whole entry partner): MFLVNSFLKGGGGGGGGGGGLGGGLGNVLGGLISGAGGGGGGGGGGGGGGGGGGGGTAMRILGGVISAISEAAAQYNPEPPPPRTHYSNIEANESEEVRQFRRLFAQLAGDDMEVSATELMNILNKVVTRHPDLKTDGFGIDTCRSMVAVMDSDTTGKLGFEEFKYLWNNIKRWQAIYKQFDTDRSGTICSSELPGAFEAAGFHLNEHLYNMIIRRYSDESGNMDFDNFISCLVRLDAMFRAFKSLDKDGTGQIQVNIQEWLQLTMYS
Assay Info: Measurement of inhibitory activity against μ-calpain
Format: biochemical
Recorded Conditions: casein substrate, 30° C., 60 minutes; read-out: enzyme inhibitory activities (μM) μ-calpain
Procedure: The inhibitory activity against μ-calpain and m-calpain was assayed according to a published method (Anal. Biochem. 1993, vol. 208, p. 387-392). […] The reaction mixture was allowed to stand at room temperature for 15 minutes, and its absorbance was measured at 595 nm. […] Inhibition rate (%){1−(measured value−blank test value)/(control value−blank test value)}×100 […]
Reported Metric: IC50 (µM)
Respond with the bare value in µM.

These solved cases illustrate the format of a correct answer.
cpd_smiles=COCCOCCOCCOCCOC(=O)N[C@@H](CC(C)C)C(=O)N[C@@H](Cc1ccccc1)C(=O)C(=O)NC1CC1 tested_system="μ-calpain (derived from human red blood cells) (Homo sapiens, UniProt P07384)" units_text=µM observed_value=0.22
cpd_smiles=COCCOCCOC(=O)N[C@@H](CC(C)C)C(=O)N[C@@H](Cc1ccccc1)C(=O)C(=O)NC1CC1 tested_system="μ-calpain (derived from human red blood cells) (Homo sapiens, UniProt P07384)" units_text=µM observed_value=0.17
cpd_smiles=COCCOCCOCCOCCOCCOC(=O)N[C@@H](CC(C)C)C(=O)N[C@@H](Cc1ccccc1)C(=O)C(=O)NC1CC1 tested_system="μ-calpain (derived from human red blood cells) (Homo sapiens, UniProt P07384)" units_text=µM observed_value=0.42
cpd_smiles=COCCOC(=O)N[C@@H](CC(C)C)C(=O)N[C@@H](Cc1ccccc1)C(=O)C(=O)NC1CC1 tested_system="μ-calpain (derived from human red blood cells) (Homo sapiens, UniProt P07384)" units_text=µM observed_value=0.11

Next up:
# get_value(readout='IC50', item= "COCCOCCOCCOC(=O)N[C@@H](CC(C)C)C(=O)N[C@@H](Cc1ccccc1)C(=O)C(=O)NC1CC1" ) 0.19
